The measurements presented in this section are drawn from paper PMC4127636.

Substrate: CC(=O)Oc1cccc2ccccc12
Experiment: spectrophotometric esterase assay
Type: biochemical, Oleispira antarctica
Conditions: 0.4 M NaCl, 50 mM potassium Hepes pH 8.0, 20°C
observable: Km (mM)
Write it as a number; the unit mM goes unstated.

• OLEI01171 (Oleispira antarctica; N226K) (protein) MSIENLSSNKSFGGWHKQYSHVSNTLNCAMRFAIYLPPQASTGAKVPVLYWLSGLTCSDENFMQKAGAQRLAAELGIAIVAPDTSPRGEGVADDEGYDLGQGAGFYVNATQAPWNRHYQMYDYVVNELPELIESMFPVSDKRAIAGHSMGGHGALTIALRNPERYQSVSAFSPINNPVNCPWGQKAFTAYLGKDTDTWREYDASLLMRAAKQYVPALVDQGEADKFLAEQLKPEVLEAAASSNNYPLELRSHEGYDHSYYFIASFIEDHLRFHSNYLNA = 0.4

Consider the record given below.
Task: Reported Km for OLEI01171 (Oleispira antarctica; S59A) (protein) MSIENLSSNKSFGGWHKQYSHVSNTLNCAMRFAIYLPPQASTGAKVPVLYWLSGLTCADENFMQKAGAQRLAAELGIAIVAPDTSPRGEGVADDEGYDLGQGAGFYVNATQAPWNRHYQMYDYVVNELPELIESMFPVSDKRAIAGHSMGGHGALTIALRNPERYQSVSAFSPINNPVNCPWGQKAFTAYLGKDTDTWREYDASLLMRAAKQYVPALVDQGEADNFLAEQLKPEVLEAAASSNNYPLELRSHEGYDHSYYFIASFIEDHLRFHSNYLNA : what is it?
Output: 0.40
